Source of measurements: ChEMBL document CHEMBL5046216

experiment: Retention time of the compound by HPLC analysis; assay type: physicochemical
property: Retention_time (min)
Respond with the bare value in min.

// worked examples, Retention_time included
> print(dat)
           substance        property  measurement
1  H-VQRWLIVWRIRK-OH  Retention_time        16.16
2  H-VRRWLIVWRIRK-OH  Retention_time        16.06
3  H-VLRWLIVWRIRK-OH  Retention_time         17.4
4  H-VQRWLIVRRIRK-OH  Retention_time        14.04
5  H-VQRWLIVWVIRK-OH  Retention_time        18.05

For reference, reported Retention_time for H-VQRWLIVWRIWK-OH stands at 18.47

For reference, reported Retention_time for H-VQRWLIVIRIRK-OH stands at 14.48
